Biological target: Sodium- and chloride-dependent GABA transporter 2 (Homo sapiens, UniProt Q9NSD5)
Sequence (Q9NSD5 whole entry): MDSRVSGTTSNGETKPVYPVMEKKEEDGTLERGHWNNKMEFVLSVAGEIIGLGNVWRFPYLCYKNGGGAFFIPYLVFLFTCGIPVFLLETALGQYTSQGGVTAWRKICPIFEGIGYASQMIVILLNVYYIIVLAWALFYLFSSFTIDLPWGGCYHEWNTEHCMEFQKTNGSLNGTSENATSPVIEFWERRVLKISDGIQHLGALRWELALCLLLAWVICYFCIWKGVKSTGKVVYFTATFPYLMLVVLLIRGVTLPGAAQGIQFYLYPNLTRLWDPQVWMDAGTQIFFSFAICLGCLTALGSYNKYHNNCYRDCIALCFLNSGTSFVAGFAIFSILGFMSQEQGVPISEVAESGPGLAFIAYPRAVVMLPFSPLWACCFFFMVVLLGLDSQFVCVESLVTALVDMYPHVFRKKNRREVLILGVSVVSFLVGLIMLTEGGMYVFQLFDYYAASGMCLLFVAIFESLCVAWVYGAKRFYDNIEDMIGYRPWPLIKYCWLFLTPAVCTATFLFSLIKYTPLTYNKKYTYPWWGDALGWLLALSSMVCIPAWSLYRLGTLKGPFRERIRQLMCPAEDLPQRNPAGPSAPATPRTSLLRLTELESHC
Assay: Inhibition of human GAT2 transfected in CHO cells assessed as [3H]GABA uptake after 20 mins by liquid scintillation counting analysis
pIC50: −log10 of the molar value.
quantity_kind: pIC50

INSERT INTO assay_data (smiles_structure, quantity_kind, value_prefix, recorded_value) VALUES
  ('NCCC(=O)O', 'pIC50', '<', 4.00),
  ('N[C@@]12CC[C@H](C(=O)O)[C@@H]1C2', 'pIC50', '<', 4.00),
  ('COc1ccccc1C1(O)CCN(CCCn2c3ccccc3c3ccccc32)CC1', 'pIC50', '=', 5.21),
  ('N[C@H]1C[C@H]1CC(=O)O', 'pIC50', '=', 4.43);
